Molecular target: Alpha-1,2-mannosidase (BT_3991) (Bacteroides thetaiotaomicron)
Sequence (Q8A0N0 whole entry, change not shown): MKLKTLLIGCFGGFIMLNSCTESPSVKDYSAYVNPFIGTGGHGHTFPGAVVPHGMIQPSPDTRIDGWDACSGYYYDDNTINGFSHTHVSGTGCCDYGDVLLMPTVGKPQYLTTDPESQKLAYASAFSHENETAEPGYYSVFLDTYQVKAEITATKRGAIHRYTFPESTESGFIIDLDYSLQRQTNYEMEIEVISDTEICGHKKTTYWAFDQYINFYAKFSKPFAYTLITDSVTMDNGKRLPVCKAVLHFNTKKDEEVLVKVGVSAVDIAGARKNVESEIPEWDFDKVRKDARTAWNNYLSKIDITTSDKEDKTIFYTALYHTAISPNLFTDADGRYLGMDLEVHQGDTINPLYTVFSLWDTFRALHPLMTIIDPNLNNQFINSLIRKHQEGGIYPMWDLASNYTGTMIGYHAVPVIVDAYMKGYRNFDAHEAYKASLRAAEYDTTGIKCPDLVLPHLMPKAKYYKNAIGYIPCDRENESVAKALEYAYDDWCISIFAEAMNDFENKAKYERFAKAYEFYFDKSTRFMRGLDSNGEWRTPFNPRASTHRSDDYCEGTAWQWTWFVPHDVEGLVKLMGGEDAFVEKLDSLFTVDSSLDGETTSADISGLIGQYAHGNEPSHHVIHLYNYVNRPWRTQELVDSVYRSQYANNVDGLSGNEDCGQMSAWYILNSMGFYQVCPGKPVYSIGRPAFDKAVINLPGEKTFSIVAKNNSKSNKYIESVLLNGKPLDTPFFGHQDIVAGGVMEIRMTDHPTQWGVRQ
value.type: Ki (µM)
Numbers only here, please. The scale is µM.

Given the compound OC[C@@H]1[C@@H](O)[C@H](O)[C@H](O)c2nccn21 , what is its reported Ki?
46

* * *

Measured Activity values are reported for all entries that follow.
Molecular target: Alpha-1,2-mannosidase (BT_3784) (Bacteroides thetaiotaomicron) (UniProt Q8A182)
Sequence (Q8A182 as listed by the source, change not shown): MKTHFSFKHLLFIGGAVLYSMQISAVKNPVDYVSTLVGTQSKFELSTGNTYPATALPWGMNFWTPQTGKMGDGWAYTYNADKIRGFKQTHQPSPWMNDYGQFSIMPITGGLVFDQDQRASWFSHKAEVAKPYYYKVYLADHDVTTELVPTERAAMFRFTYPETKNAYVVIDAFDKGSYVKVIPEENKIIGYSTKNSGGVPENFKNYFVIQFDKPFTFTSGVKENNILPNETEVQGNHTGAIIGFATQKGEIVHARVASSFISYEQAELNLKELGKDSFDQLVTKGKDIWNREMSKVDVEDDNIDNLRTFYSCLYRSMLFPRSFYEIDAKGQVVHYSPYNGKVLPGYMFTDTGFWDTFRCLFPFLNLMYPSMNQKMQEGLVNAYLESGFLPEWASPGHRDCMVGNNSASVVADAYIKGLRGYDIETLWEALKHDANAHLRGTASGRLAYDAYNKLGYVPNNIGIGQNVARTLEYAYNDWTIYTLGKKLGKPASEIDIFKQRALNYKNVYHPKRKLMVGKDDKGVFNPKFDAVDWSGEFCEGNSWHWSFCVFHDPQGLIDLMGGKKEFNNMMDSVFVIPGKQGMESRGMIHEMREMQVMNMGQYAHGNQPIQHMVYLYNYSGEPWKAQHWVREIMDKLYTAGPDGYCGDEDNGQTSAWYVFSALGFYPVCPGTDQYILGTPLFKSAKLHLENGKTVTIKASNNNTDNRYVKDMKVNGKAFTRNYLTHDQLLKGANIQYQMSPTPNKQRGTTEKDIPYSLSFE
Assay: Activity of Bacteroides thetaiotaomicron GH92 alpha-mannosidase GH92 alpha-mannosidase 3784 assessed as mannose release at 1 mM after 16 hrs by HPLC relative to untreated control after 16 hrs by HPLC
Type: protein assay

INSERT INTO measurements (smiles_notation, result) VALUES
  ('OC[C@H]1O[C@H](O[C@H]2[C@H](O)[C@H](O)[C@@H](O)O[C@@H]2CO)[C@@H](O)[C@@H](O)[C@@H]1O', '7.8%'),
  ('OC[C@H]1O[C@H](O[C@H]2[C@@H](O)[C@H](O)[C@@H](CO)O[C@@H]2O)[C@@H](O)[C@@H](O)[C@@H]1O', '100%');

I'd like to know its Activity. The molecule in question is OC[C@H]1O[C@H](O[C@@H]2[C@H](O)[C@@H](O)O[C@H](CO)[C@H]2O)[C@@H](O)[C@@H](O)[C@@H]1O
5.6%

* * *

Target: Alpha-1,2-mannosidase (BT_3965) (Bacteroides thetaiotaomicron)
Experiment: Activity of Bacteroides thetaiotaomicron GH92 alpha-mannosidase GH92 alpha-mannosidase 3965 assessed as mannose release at 1 mM after 16 hrs by HPLC relative to untreated control after 16 hrs by HPLC
Format: protein assay
value.type: Activity (%)
Please reply with the bare figure in % and do not write the unit itself.

Before answering, review these 3 worked examples.
INSERT INTO measurements (smiles_notation, system_under_test, unit_of_measurement, quantitative_readout) VALUES
  ('OC[C@H]1O[C@H](OC[C@H]2O[C@H](O)[C@@H](O)[C@@H](O)[C@@H]2O)[C@@H](O)[C@@H](O)[C@@H]1O', 'Alpha-1,2-mannosidase (BT_3965) (Bacteroides thetaiotaomicron)', '%', 0.64),
  ('OC[C@H]1O[C@H](O[C@@H]2[C@H](O)[C@@H](O)O[C@H](CO)[C@H]2O)[C@@H](O)[C@@H](O)[C@@H]1O', 'Alpha-1,2-mannosidase (BT_3965) (Bacteroides thetaiotaomicron)', '%', 0.09),
  ('OC[C@H]1O[C@H](O[C@H]2[C@@H](O)[C@H](O)[C@@H](CO)O[C@@H]2O)[C@@H](O)[C@@H](O)[C@@H]1O', 'Alpha-1,2-mannosidase (BT_3965) (Bacteroides thetaiotaomicron)', '%', 0.27);

--- query ---
Reported Activity for Alpha-1,2-mannosidase (BT_3965) (Bacteroides thetaiotaomicron), given OC[C@H]1O[C@H](O[C@H]2[C@H](O)[C@H](O)[C@@H](O)O[C@@H]2CO)[C@@H](O)[C@@H](O)[C@@H]1O ?
100

* * *

Target: UniProt:Q8A3K6
Sequence (Q8A3K6 whole entry): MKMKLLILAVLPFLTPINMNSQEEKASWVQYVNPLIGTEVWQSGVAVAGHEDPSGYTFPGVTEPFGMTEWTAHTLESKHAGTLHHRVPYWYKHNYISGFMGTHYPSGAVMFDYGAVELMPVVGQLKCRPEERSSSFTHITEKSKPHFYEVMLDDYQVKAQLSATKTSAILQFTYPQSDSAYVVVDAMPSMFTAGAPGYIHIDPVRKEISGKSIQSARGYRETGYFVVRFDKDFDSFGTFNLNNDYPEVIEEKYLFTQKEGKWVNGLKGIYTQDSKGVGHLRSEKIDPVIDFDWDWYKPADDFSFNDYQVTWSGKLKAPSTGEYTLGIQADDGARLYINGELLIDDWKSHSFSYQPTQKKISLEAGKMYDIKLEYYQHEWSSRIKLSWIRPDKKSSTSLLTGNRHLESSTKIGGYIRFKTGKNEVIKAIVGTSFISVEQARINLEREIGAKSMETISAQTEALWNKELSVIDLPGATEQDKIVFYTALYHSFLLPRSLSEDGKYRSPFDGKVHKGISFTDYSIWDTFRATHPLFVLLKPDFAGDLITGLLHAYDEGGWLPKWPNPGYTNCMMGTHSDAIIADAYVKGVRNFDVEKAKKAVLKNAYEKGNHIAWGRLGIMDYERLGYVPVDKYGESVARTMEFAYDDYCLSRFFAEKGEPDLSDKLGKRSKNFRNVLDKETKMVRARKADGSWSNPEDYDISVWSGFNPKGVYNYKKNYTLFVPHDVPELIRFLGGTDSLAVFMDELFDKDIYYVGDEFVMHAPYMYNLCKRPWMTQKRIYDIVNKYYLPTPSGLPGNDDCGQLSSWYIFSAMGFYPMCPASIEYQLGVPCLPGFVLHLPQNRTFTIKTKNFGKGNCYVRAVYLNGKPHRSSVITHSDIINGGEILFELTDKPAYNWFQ
value.type: Ki (µM)
Give the quantity in µM, number only.

What does the record list as Ki for OC[C@@H]1[C@@H](O)[C@H](O)[C@H](O)c2nccn21 [MANNOIMIDAZOLE] ?
70

* * *

Target: Alpha-1,2-mannosidase family protein (BT_4093) (Bacteroides thetaiotaomicron)
Experiment: Activity of Bacteroides thetaiotaomicron GH92 alpha-mannosidase GH92 alpha-mannosidase 4093 assessed as mannose release at 1 mM after 16 hrs by HPLC relative to untreated control after 16 hrs by HPLC
Assay type: protein assay
Active and inactive are the calls of the source. No cut-off for these calls is given here.
value.type: Activity

INSERT INTO assay_data (smiles_notation, result) VALUES
  ('OC[C@H]1O[C@H](OC[C@H]2O[C@H](O)[C@@H](O)[C@@H](O)[C@@H]2O)[C@@H](O)[C@@H](O)[C@@H]1O', 'inactive'),
  ('OC[C@H]1O[C@H](O[C@@H]2[C@H](O)[C@@H](O)O[C@H](CO)[C@H]2O)[C@@H](O)[C@@H](O)[C@@H]1O', 'inactive'),
  ('OC[C@H]1O[C@H](O[C@H]2[C@H](O)[C@H](O)[C@@H](O)O[C@@H]2CO)[C@@H](O)[C@@H](O)[C@@H]1O', '100%'),
  ('OC[C@H]1O[C@H](O[C@H]2[C@@H](O)[C@H](O)[C@@H](CO)O[C@@H]2O)[C@@H](O)[C@@H](O)[C@@H]1O', 'inactive');

* * *

Biological target: Alpha-1,2-mannosidase (BT_3530) (Bacteroides thetaiotaomicron)
Test: Activity of Bacteroides thetaiotaomicron GH92 alpha-mannosidase GH92 alpha-mannosidase 3530 assessed as mannose release at 1 mM after 16 hrs by HPLC relative to untreated control after 16 hrs by HPLC
Format: protein assay
Calls of active or inactive are those of the source. The calls are words filed in the database; no cut-off is given here.
value.type: Activity

INSERT INTO results (smiles_notation, system_under_test, result) VALUES
  ('OC[C@H]1O[C@H](O[C@H]2[C@H](O)[C@H](O)[C@@H](O)O[C@@H]2CO)[C@@H](O)[C@@H](O)[C@@H]1O', 'Alpha-1,2-mannosidase (BT_3530) (Bacteroides thetaiotaomicron)', '100%'),
  ('OC[C@H]1O[C@H](O[C@H]2[C@@H](O)[C@H](O)[C@@H](CO)O[C@@H]2O)[C@@H](O)[C@@H](O)[C@@H]1O', 'Alpha-1,2-mannosidase (BT_3530) (Bacteroides thetaiotaomicron)', 'inactive'),
  ('OC[C@H]1O[C@H](OC[C@H]2O[C@H](O)[C@@H](O)[C@@H](O)[C@@H]2O)[C@@H](O)[C@@H](O)[C@@H]1O', 'Alpha-1,2-mannosidase (BT_3530) (Bacteroides thetaiotaomicron)', 'inactive'),
  ('OC[C@H]1O[C@H](O[C@@H]2[C@H](O)[C@@H](O)O[C@H](CO)[C@H]2O)[C@@H](O)[C@@H](O)[C@@H]1O', 'Alpha-1,2-mannosidase (BT_3530) (Bacteroides thetaiotaomicron)', '58%');

* * *

Here, each record is paired with measured Activity data.
Target: Glycoside hydrolase family 92 (BT_3962) (Bacteroides thetaiotaomicron)
Sequence (whole entry): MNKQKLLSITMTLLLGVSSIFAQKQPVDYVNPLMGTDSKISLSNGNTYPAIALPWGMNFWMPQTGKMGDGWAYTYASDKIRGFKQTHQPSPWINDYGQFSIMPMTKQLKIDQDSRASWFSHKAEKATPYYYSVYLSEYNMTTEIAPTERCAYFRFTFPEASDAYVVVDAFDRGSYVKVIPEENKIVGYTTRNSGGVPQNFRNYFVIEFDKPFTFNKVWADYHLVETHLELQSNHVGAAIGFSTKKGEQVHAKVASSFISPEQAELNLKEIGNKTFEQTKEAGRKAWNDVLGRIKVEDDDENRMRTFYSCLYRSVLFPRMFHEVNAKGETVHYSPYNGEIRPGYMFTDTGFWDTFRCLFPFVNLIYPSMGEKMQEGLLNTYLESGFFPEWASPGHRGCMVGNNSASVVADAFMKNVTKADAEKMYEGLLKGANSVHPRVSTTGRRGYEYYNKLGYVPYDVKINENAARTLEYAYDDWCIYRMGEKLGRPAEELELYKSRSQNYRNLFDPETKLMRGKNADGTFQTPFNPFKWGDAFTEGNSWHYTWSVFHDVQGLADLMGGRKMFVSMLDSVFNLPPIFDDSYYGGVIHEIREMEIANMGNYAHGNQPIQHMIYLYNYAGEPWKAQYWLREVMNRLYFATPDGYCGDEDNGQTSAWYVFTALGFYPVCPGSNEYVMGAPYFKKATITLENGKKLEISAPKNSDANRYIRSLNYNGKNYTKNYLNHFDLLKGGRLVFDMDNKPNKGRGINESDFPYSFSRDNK
Assay: Activity of Bacteroides thetaiotaomicron GH92 alpha-mannosidase GH92 alpha-mannosidase 3962 assessed as mannose release at 1 mM after 16 hrs by HPLC relative to untreated control after 16 hrs by HPLC
Type: protein assay

Worked examples, 2 compounds total:
INSERT INTO results (smiles_notation, value_type, result) VALUES
  ('OC[C@H]1O[C@H](OC[C@H]2O[C@H](O)[C@@H](O)[C@@H](O)[C@@H]2O)[C@@H](O)[C@@H](O)[C@@H]1O', 'Activity', '0.0031%'),
  ('OC[C@H]1O[C@H](O[C@H]2[C@H](O)[C@H](O)[C@@H](O)O[C@@H]2CO)[C@@H](O)[C@@H](O)[C@@H]1O', 'Activity', '0.042%');

Would you kindly look at the next entry?
Fill in: Activity of OC[C@H]1O[C@H](O[C@H]2[C@@H](O)[C@H](O)[C@@H](CO)O[C@@H]2O)[C@@H](O)[C@@H](O)[C@@H]1O is ___
100%
